Reported MIC values follow for various molecules
- System: P. mirabilis 190
- protocol: In vitro antibacterial activity (MIC)
- Assay type: cell-based
- condition parameters: Proteus mirabilis, 190, P. mirabilis 190; read-out: MIC
Structures can show the parent of a compound that is named as a salt.

molecule | study system | MIC [µg/mL]
CC1(C)S[C@@H]2[C@H](N=CN3CCCC(c4ncc[nH]4)C3)C(=O)N2[C@H]1C(=O)O (stereo partly shown) [P, hydrochloride] | P. mirabilis 190 | 4
CC1(C)S[C@@H]2[C@H](N=CN3CCC(Cn4ccnc4N)CC3)C(=O)N2[C@H]1C(=O)O [H, hydrochloride] | P. mirabilis 190 | 0.125
CC1(C)S[C@@H]2[C@H](N=CN3CCC(CCCn4ccnc4[N+](=O)[O-])CC3)C(=O)N2[C@H]1C(=O)O [K, hydrate] | P. mirabilis 190 | 0.5
CCc1nc(C)cn1CCCC1CCN(C=N[C@@H]2C(=O)N3[C@@H]2SC(C)(C)[C@@H]3C(=O)O)CC1 [G, hydrochloride] | P. mirabilis 190 | 0.5
CC1(C)S[C@@H]2[C@H](N=CN3CCC(CCCn4ccnc4N)CC3)C(=O)N2[C@H]1C(=O)O [I, hydrochloride] | P. mirabilis 190 | 0.125
Cc1nccn1CCCC1CCN(C=N[C@@H]2C(=O)N3[C@@H]2SC(C)(C)[C@@H]3C(=O)O)CC1 [F, hydrate] | P. mirabilis 190 | 0.25
CC1(C)S[C@@H]2[C@H](N=CN3CCC(CCn4ccnc4)CC3)C(=O)N2[C@H]1C(=O)O [B, hydrate hydrochloride] | P. mirabilis 190 | 0.5
